Biological target: Induced myeloid leukemia cell differentiation protein Mcl-1 (Homo sapiens) (UniProt Q07820)
Sequence (Q07820 whole entry, looked up): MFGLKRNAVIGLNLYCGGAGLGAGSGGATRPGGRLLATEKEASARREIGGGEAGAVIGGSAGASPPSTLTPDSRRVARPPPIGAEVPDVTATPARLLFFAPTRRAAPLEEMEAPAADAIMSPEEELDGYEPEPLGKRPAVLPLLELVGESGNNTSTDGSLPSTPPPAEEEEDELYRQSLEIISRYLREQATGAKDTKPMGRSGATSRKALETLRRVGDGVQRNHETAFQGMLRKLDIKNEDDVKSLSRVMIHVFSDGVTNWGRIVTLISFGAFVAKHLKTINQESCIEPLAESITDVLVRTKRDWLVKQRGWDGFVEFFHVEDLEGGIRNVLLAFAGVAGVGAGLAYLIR
Assay: Mcl-1/Noxa binding inhibitor potency, dose response, biochemical, TR-FRET (AID 1417)
Settings: Mcl-1/Noxa peptide interaction, cell-free TR-FRET (terbium/rhodamine), 2 h; measured here: absolute IC50
property: pIC50
Give bare numbers, as −log10 of the molar value.

These solved cases illustrate the format of a correct answer.
COc1ccc(-c2csc(/C(C#N)=C\c3ccc(O)c([N+](=O)[O-])c3)n2)cc1OC; 5.32
COc1ccc(NC(=O)CN2C(=O)/C(=C3\SC(=S)N(C4CCS(=O)(=O)C4)C3=O)c3ccccc32)cc1 (stereo unspecified); 5.59
O=C1c2cccc3cc([N+](=O)[O-])cc(c23)C(=O)N1/N=C/c1ccc(O)cc1O; 5.82
CN(C)c1ccc(Sc2nnc(NC(=O)Nc3ccc(Cl)cc3Cl)s2)cc1; 5.46
O=C(O)c1cccc(Cn2c(Cl)c(/C=N/NC(=O)c3cc4ccccc4cc3O)sc2=O)c1; 5.47
CCCCCCCCCCCCCCCC[n+]1cccc2ccccc21; 5.27
N#C/C(=C\c1ccc(C(=O)O)cc1)c1nc2sc3c(c2c(=O)[nH]1)CCCC3; 5.53
Cc1ccc(N2C(=O)NC(=O)/C(=C\c3cnc(-c4ccccc4)nc3)C2=O)cc1; 4.69
O=C(CSc1nnc(-c2ccco2)c(-c2ccco2)n1)c1ccccc1; 5.43
Nc1nc(N)c2cc(Sc3ccc4ccccc4c3)ccc2n1; 5.39

Take each entry in turn and give its pIC50.
1. Cc1c(Cc2ccccc2)c(=O)oc2c(O)c(O)ccc12
2. O=C(Nc1ccc(N2CCCC2)cc1)c1ccccc1F
3. CCN(CC)c1nc2c3c(nc4c(c3c1C#N)CC(=O)N4c1ccc(Cl)cc1)NC(C)=N2
4. COc1ccc(CN2C(=O)NC(=O)/C(=C/c3ccc([N+](=O)[O-])o3)C2=O)cc1
5. Cc1cc(/C=N/n2c(COc3ccccc3)nc3ccccc3c2=O)c(O)c([N+](=O)[O-])c1
6. CS(=O)(=O)c1ccc(C(=O)NCCN2C(=O)S/C(=C\c3cccnc3)C2=O)cc1[N+](=O)[O-]
7. O=C(CSc1nnc(SCc2ccccc2)s1)N/N=C/C=C/c1ccco1

Response:
1. 4.47
2. 5.16
3. 5.50
4. 5.55
5. 5.81
6. 5.50
7. 5.31

Take each entry in turn and give its pIC50.
1. O=C(O)c1ccc(NS(=O)(=O)c2ccc3c(c2)C2C=CCC2C(c2ccccc2F)N3)cc1 (stereo unspecified)
2. O=C(CSc1nnc(COc2ccccc2Cl)o1)NC(=O)NCc1ccco1
3. Cc1nnc(Sc2cc(NCCCO)c([N+](=O)[O-])c3nonc23)s1
4. O=C(O)c1ccccc1N/N=C/c1cc(Br)cc(Br)c1O
5. CCN1C(=O)/C(=C/c2ccc3c(c2)CCN3CCCCl)C(=O)NC1=S
6. O=C(CSc1cccc[n+]1[O-])Nc1cc2c(cc1Cl)C(=O)c1ccccc1C2=O

Response:
[5.90, 5.07, 5.98, 5.12, 5.59, 5.43]

---

Target: Induced myeloid leukemia cell differentiation protein Mcl-1 (Homo sapiens) (UniProt Q07820)
Assay: Mcl-1/Noxa binding inhibitor potency, dose response, biochemical, TR-FRET (AID 1417)
Settings: Mcl-1/Noxa peptide interaction, cell-free TR-FRET (terbium/rhodamine), 2 h; measured here: absolute IC50
property: pIC50
Answers are plain numbers, as −log10 of the molar value.

These solved cases illustrate the format of a correct answer.
CCOc1ccc2nc(N3C(=O)/C(=C/c4ccc(Cl)cc4)NC3=S)sc2c1; 5.81
CCCCN1C(=O)/C(=C/C=C/c2ccco2)C(=O)NC1=S; 6.26
O=C(COC(=O)c1ccc(NS(=O)(=O)c2cccs2)cc1)NCc1ccco1; 5.62
Cc1ccc(NC(=O)Cn2c(O)c(N=NC(=O)c3cc4ccccc4cc3O)c3ccccc32)cc1; 5.53

Prompt: What does the data say about its pIC50? Entry: O=C(O)CCCN1C(=O)/C(=C/c2cn(-c3ccccc3)nc2-c2cccs2)SC1=S
Response: 5.81

Reference for the values: PubChem BioAssay AID1417
